molecular target: human GLP1R (Homo sapiens); construct: expressed in transfected cells; host or cells: CHO cells (ATCC), transient transfection with pCMV-human GLP1R; assay: Human GLP-1 receptor transfected cell assay (MRE/CRE-luciferase reporter gene, agonist activity); assay type: cell-based; conditions: 6 h; concentration 10 μM; read-out: Activity (agonist), percentage of the activity of the control
Sequence (P43220 24-463): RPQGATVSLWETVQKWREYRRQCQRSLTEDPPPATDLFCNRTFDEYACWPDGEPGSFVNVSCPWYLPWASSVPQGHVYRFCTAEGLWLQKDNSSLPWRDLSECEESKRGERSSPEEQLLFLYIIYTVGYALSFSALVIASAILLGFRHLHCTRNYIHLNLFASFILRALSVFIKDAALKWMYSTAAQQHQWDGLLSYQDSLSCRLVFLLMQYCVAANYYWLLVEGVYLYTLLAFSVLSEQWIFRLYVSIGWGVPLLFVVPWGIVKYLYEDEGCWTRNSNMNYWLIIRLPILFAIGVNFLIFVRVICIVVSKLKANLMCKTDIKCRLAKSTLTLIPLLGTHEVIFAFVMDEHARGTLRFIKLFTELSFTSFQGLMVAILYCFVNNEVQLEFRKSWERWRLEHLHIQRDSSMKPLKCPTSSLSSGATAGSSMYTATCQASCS

# molecule, activation at 10 µM
rows = [
    ("CC(=O)N(Cc1ccc(-c2ccc(C)cc2)o1)C(Cc1ccc(-c2noc(-c3ccc(NC(=O)OC(C)(C)C)cc3)n2)c(F)c1)C(=O)O (stereo not drawn)", "> 60%"),
    ("Cc1ccc(-c2ccc(C(=O)N[C@H](Cc3ccc(-c4cc(-c5ccc(NC(=O)OC(C)C)cc5)[nH]n4)c(F)c3)C(=O)O)o2)cc1", "> 60%"),
    ("CC(C)(C)OC(=O)Nc1ccc(-c2nc(-c3ccc(CC(NC(=O)c4ccn(-c5ccc(C(F)(F)F)cc5)n4)C(=O)O)cc3F)no2)cc1 (stereo not drawn)", "40 to 60%"),
]
